Tested on: 556581-035-R-J1-PDC complex spheroid growth
Experiment: Anticancer human tumor 556581-035-R-J1-PDC patient-derived ovarian carcinoma cell line growth inhibition [Asc]
Conditions: second compound 0.316 µM; first compound 0.01 µM; stronger effect = lower value
Please go through the items and note down their viability, T/C.
Numbers only, in %.

# map each compound to its viability, T/C
1. Cn1ncnc1[C@H]1c2n[nH]c(=O)c3cc(F)cc(c23)N[C@@H]1c1ccc(F)cc1 + CNC(C)C(=O)NC1CN(S(=O)(=O)c2cccc(S(=O)(=O)N3CCC4CCC(C(=O)NC(c5ccccc5)c5ccccc5)N4C(=O)C(NC(=O)C(C)NC)C3)c2)CCC2CCC(C(=O)NC(c3ccccc3)c3ccccc3)N2C1=O
2. COc1c(OCCCN2CCOCC2)ccc2c3n(c(=NC(=O)c4cnc(N)nc4)nc12)CCN3 + Cc1c(S(C)(=O)=O)c(-c2cc(F)cc(N3CCN(c4ccc(NS(=O)(=O)c5ccc(NC(CCN6CCC(C(=O)OCCCP(=O)(O)O)CC6)CSc6ccccc6)c(S(=O)(=O)C(F)(F)F)c5)cc4)CC3)c2)c(-c2ccc(Cl)cc2)n1C(C)C
3. CCN1CCN(Cc2ccc(Nc3ncc(F)c(-c4cc(F)c5nc(C)n(C(C)C)c5c4)n3)nc2)CC1 + Cc1c(S(C)(=O)=O)c(-c2cc(F)cc(N3CCN(c4ccc(NS(=O)(=O)c5ccc(NC(CCN6CCC(C(=O)OCCCP(=O)(O)O)CC6)CSc6ccccc6)c(S(=O)(=O)C(F)(F)F)c5)cc4)CC3)c2)c(-c2ccc(Cl)cc2)n1C(C)C
4. Cn1ncnc1[C@H]1c2n[nH]c(=O)c3cc(F)cc(c23)N[C@@H]1c1ccc(F)cc1 + Cc1c(S(C)(=O)=O)c(-c2cc(F)cc(N3CCN(c4ccc(NS(=O)(=O)c5ccc(NC(CCN6CCC(C(=O)OCCCP(=O)(O)O)CC6)CSc6ccccc6)c(S(=O)(=O)C(F)(F)F)c5)cc4)CC3)c2)c(-c2ccc(Cl)cc2)n1C(C)C

1. 74
2. 56.6
3. 77.5
4. 66.6

* * *

Tested on: 556581-035-R-J1-PDC complex spheroid growth
Experiment: Anticancer human tumor 556581-035-R-J1-PDC cell line growth inhibition [Asc];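 note: spheroids exposed to agents for 7 days before viability read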
Conditions: second compound 0.3 µM; first compound 3.16 µM; stronger effect = lower value
From the text: Multicellular complex tumor spheroid response to apoptosis pathway targeting inhibitors Alrizomadlin, Pelcitoclax, and Dasminapant in combination with a variety of drugs and investigational agents in selected tumor cell lines […] Compounds. […] If the clinical Cmax for an agent had not been determined, the highest concentration tested was 10 microM. […]
measured_endpoint: viability, T/C (%)
Numbers only, in %.

compound	obs_value
C=C(F)C(=O)N1CCN(c2nc(OCC3CCCN3C)nc3c2CCN(c2cccc4cccc(Cl)c24)C3)CC1CC#N (centres undefined) + CCN1C(C(=O)NC23CCC(C(=O)O)(CC2)CC3)C(c2cccc(Cl)c2F)C2(C(=O)Nc3cc(Cl)ccc32)C12CCCCC2	61.4
C=CC(=O)N1CCN(c2nc(=O)n(-c3c(C)ccnc3C(C)C)c3nc(-c4c(O)cccc4F)c(F)cc23)C(C)C1 (centres undefined) + CCN1C(C(=O)NC23CCC(C(=O)O)(CC2)CC3)C(c2cccc(Cl)c2F)C2(C(=O)Nc3cc(Cl)ccc32)C12CCCCC2	116
O=C(c1cc(Cc2n[nH]c(=O)c3ccccc23)ccc1F)N1CCN(C(=O)C2CC2)CC1 + CCN1C(C(=O)NC23CCC(C(=O)O)(CC2)CC3)C(c2cccc(Cl)c2F)C2(C(=O)Nc3cc(Cl)ccc32)C12CCCCC2	73.3

Continue with the next compound.
Find viability, T/C (556581-035-R-J1-PDC complex spheroid growth) for the entry C#Cc1c(F)ccc2cc(O)cc(-c3ncc4c(N5CC6CCC(C5)N6)nc(OCC56CCCN5CC(F)C6)nc4c3F)c12 (centres undefined) + CCN1C(C(=O)NC23CCC(C(=O)O)(CC2)CC3)C(c2cccc(Cl)c2F)C2(C(=O)Nc3cc(Cl)ccc32)C12CCCCC2 83.3

* * *

System: 556581-035-R-J1-PDC complex spheroid growth
Test: Anticancer human tumor 556581-035-R-J1-PDC cell line growth inhibition [Asc];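 note: spheroids exposed to agents for 7 days before viability read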
Conditions: second compound 0.0316 µM; first compound 0.1 µM; stronger effect = lower value
From the text: Multicellular complex tumor spheroid response to apoptosis pathway targeting inhibitors Alrizomadlin, Pelcitoclax, and Dasminapant in combination with a variety of drugs and investigational agents in selected tumor cell lines […] Compounds. […] If the clinical Cmax for an agent had not been determined, the highest concentration tested was 10 microM. […]
measured_endpoint: viability, T/C (%)
One number for each entry, in %.

compound	viability, T/C (%)
C=C(F)C(=O)N1CCN(c2nc(OCC3CCCN3C)nc3c2CCN(c2cccc4cccc(Cl)c24)C3)CC1CC#N (centres undefined) + CNC(C)C(=O)NC1CN(S(=O)(=O)c2cccc(S(=O)(=O)N3CCC4CCC(C(=O)NC(c5ccccc5)c5ccccc5)N4C(=O)C(NC(=O)C(C)NC)C3)c2)CCC2CCC(C(=O)NC(c3ccccc3)c3ccccc3)N2C1=O	86.8
Cn1ncnc1[C@H]1c2n[nH]c(=O)c3cc(F)cc(c23)N[C@@H]1c1ccc(F)cc1 + CNC(C)C(=O)NC1CN(S(=O)(=O)c2cccc(S(=O)(=O)N3CCC4CCC(C(=O)NC(c5ccccc5)c5ccccc5)N4C(=O)C(NC(=O)C(C)NC)C3)c2)CCC2CCC(C(=O)NC(c3ccccc3)c3ccccc3)N2C1=O	88.8
C=CC(=O)N1CCN(c2nc(=O)n(-c3c(C)ccnc3C(C)C)c3nc(-c4c(O)cccc4F)c(F)cc23)C(C)C1 (centres undefined) + CNC(C)C(=O)NC1CN(S(=O)(=O)c2cccc(S(=O)(=O)N3CCC4CCC(C(=O)NC(c5ccccc5)c5ccccc5)N4C(=O)C(NC(=O)C(C)NC)C3)c2)CCC2CCC(C(=O)NC(c3ccccc3)c3ccccc3)N2C1=O	98
O=C(c1ccc(F)c(F)c1Nc1ccc(I)cc1F)N1CC(O)([C@@H]2CCCCN2)C1 + CNC(C)C(=O)NC1CN(S(=O)(=O)c2cccc(S(=O)(=O)N3CCC4CCC(C(=O)NC(c5ccccc5)c5ccccc5)N4C(=O)C(NC(=O)C(C)NC)C3)c2)CCC2CCC(C(=O)NC(c3ccccc3)c3ccccc3)N2C1=O	71.9
O=C(c1cc(Cc2n[nH]c(=O)c3ccccc23)ccc1F)N1CCN(C(=O)C2CC2)CC1 + CNC(C)C(=O)NC1CN(S(=O)(=O)c2cccc(S(=O)(=O)N3CCC4CCC(C(=O)NC(c5ccccc5)c5ccccc5)N4C(=O)C(NC(=O)C(C)NC)C3)c2)CCC2CCC(C(=O)NC(c3ccccc3)c3ccccc3)N2C1=O	88.7
COc1c(OCCCN2CCOCC2)ccc2c3n(c(=NC(=O)c4cnc(N)nc4)nc12)CCN3 + CNC(C)C(=O)NC1CN(S(=O)(=O)c2cccc(S(=O)(=O)N3CCC4CCC(C(=O)NC(c5ccccc5)c5ccccc5)N4C(=O)C(NC(=O)C(C)NC)C3)c2)CCC2CCC(C(=O)NC(c3ccccc3)c3ccccc3)N2C1=O	35.5
NC1CCC(NC2CC2c2ccccc2)CC1 (centres undefined) + CNC(C)C(=O)NC1CN(S(=O)(=O)c2cccc(S(=O)(=O)N3CCC4CCC(C(=O)NC(c5ccccc5)c5ccccc5)N4C(=O)C(NC(=O)C(C)NC)C3)c2)CCC2CCC(C(=O)NC(c3ccccc3)c3ccccc3)N2C1=O	86.1
CCN1CCN(Cc2ccc(Nc3ncc(F)c(-c4cc(F)c5nc(C)n(C(C)C)c5c4)n3)nc2)CC1 + CNC(C)C(=O)NC1CN(S(=O)(=O)c2cccc(S(=O)(=O)N3CCC4CCC(C(=O)NC(c5ccccc5)c5ccccc5)N4C(=O)C(NC(=O)C(C)NC)C3)c2)CCC2CCC(C(=O)NC(c3ccccc3)c3ccccc3)N2C1=O	85.7

Consider the additional compound presented here.
Need viability, T/C, item C#Cc1c(F)ccc2cc(O)cc(-c3ncc4c(N5CC6CCC(C5)N6)nc(OCC56CCCN5CC(F)C6)nc4c3F)c12 (centres undefined) + CNC(C)C(=O)NC1CN(S(=O)(=O)c2cccc(S(=O)(=O)N3CCC4CCC(C(=O)NC(c5ccccc5)c5ccccc5)N4C(=O)C(NC(=O)C(C)NC)C3)c2)CCC2CCC(C(=O)NC(c3ccccc3)c3ccccc3)N2C1=O 95.9

* * *

Test system: 556581-035-R-J1-PDC complex spheroid growth
Assay: Anticancer human tumor 556581-035-R-J1-PDC cell line growth inhibition [Asc];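 note: spheroids exposed to agents for 7 days before viability read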
Details: second compound 0.316 µM; first compound 0.1 µM; stronger effect = lower value
Description: Multicellular complex tumor spheroid response to apoptosis pathway targeting inhibitors Alrizomadlin, Pelcitoclax, and Dasminapant in combination with a variety of drugs and investigational agents in selected tumor cell lines […] Compounds. […] If the clinical Cmax for an agent had not been determined, the highest concentration tested was 10 microM. […]
Response field label: string, one of label 1 (viability, T/C strictly below 80%) or label 0.

Some entries whose results are on file:
compound	class_label
C#Cc1c(F)ccc2cc(O)cc(-c3ncc4c(N5CC6CCC(C5)N6)nc(OCC56CCCN5CC(F)C6)nc4c3F)c12 (stereo unspecified) + CNC(C)C(=O)NC1CN(S(=O)(=O)c2cccc(S(=O)(=O)N3CCC4CCC(C(=O)NC(c5ccccc5)c5ccccc5)N4C(=O)C(NC(=O)C(C)NC)C3)c2)CCC2CCC(C(=O)NC(c3ccccc3)c3ccccc3)N2C1=O	label 1
O=C(c1cc(Cc2n[nH]c(=O)c3ccccc23)ccc1F)N1CCN(C(=O)C2CC2)CC1 + CNC(C)C(=O)NC1CN(S(=O)(=O)c2cccc(S(=O)(=O)N3CCC4CCC(C(=O)NC(c5ccccc5)c5ccccc5)N4C(=O)C(NC(=O)C(C)NC)C3)c2)CCC2CCC(C(=O)NC(c3ccccc3)c3ccccc3)N2C1=O	label 1
NC1CCC(NC2CC2c2ccccc2)CC1 (stereo unspecified) + Cc1c(S(C)(=O)=O)c(-c2cc(F)cc(N3CCN(c4ccc(NS(=O)(=O)c5ccc(NC(CCN6CCC(C(=O)OCCCP(=O)(O)O)CC6)CSc6ccccc6)c(S(=O)(=O)C(F)(F)F)c5)cc4)CC3)c2)c(-c2ccc(Cl)cc2)n1C(C)C	label 1

API: query returns whether the compound falls strictly under 80% in viability, T/C. Query: C=CC(=O)N1CCN(c2nc(=O)n(-c3c(C)ccnc3C(C)C)c3nc(-c4c(O)cccc4F)c(F)cc23)C(C)C1 (stereo unspecified) + Cc1c(S(C)(=O)=O)c(-c2cc(F)cc(N3CCN(c4ccc(NS(=O)(=O)c5ccc(NC(CCN6CCC(C(=O)OCCCP(=O)(O)O)CC6)CSc6ccccc6)c(S(=O)(=O)C(F)(F)F)c5)cc4)CC3)c2)c(-c2ccc(Cl)cc2)n1C(C)C label 0

Another compound: O=C(c1ccc(F)c(F)c1Nc1ccc(I)cc1F)N1CC(O)([C@@H]2CCCCN2)C1 + CNC(C)C(=O)NC1CN(S(=O)(=O)c2cccc(S(=O)(=O)N3CCC4CCC(C(=O)NC(c5ccccc5)c5ccccc5)N4C(=O)C(NC(=O)C(C)NC)C3)c2)CCC2CCC(C(=O)NC(c3ccccc3)c3ccccc3)N2C1=O label 1

Next compound up: CNC(C)C(=O)NC1CN(S(=O)(=O)c2cccc(S(=O)(=O)N3CCC4CCC(C(=O)NC(c5ccccc5)c5ccccc5)N4C(=O)C(NC(=O)C(C)NC)C3)c2)CCC2CCC(C(=O)NC(c3ccccc3)c3ccccc3)N2C1=O (stereo unspecified) + Cc1c(S(C)(=O)=O)c(-c2cc(F)cc(N3CCN(c4ccc(NS(=O)(=O)c5ccc(NC(CCN6CCC(C(=O)OCCCP(=O)(O)O)CC6)CSc6ccccc6)c(S(=O)(=O)C(F)(F)F)c5)cc4)CC3)c2)c(-c2ccc(Cl)cc2)n1C(C)C label 1
